Molecular target: Human GLP-1 receptor stably expressing cells (hGLP-1R/CHO-K1 cells) (Homo sapiens, UniProt P43220)
Sequence (P43220 24-463): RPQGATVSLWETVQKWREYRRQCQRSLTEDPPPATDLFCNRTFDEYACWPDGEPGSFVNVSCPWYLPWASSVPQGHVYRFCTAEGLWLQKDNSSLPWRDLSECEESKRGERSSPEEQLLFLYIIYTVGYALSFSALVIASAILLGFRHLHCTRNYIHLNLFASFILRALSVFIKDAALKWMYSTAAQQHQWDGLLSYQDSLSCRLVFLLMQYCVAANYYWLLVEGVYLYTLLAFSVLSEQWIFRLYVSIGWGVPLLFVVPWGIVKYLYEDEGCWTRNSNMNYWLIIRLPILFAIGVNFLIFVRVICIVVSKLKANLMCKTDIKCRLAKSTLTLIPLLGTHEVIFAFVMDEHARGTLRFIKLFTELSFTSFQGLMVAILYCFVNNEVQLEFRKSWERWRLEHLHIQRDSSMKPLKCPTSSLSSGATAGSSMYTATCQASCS
Experiment: Measurement of GLP-1 receptor agonist activity (cAMP assay)
Settings: increase in cAMP concentration in hGLP-1R/CHO-K1 cells, 37° C. 1 hour
PROPERTY_NAME: EC50 (nM)

{"columns": ["COMPOUND", "EC50 [nM]"],
 "data": [
  ["C[C@H]1c2nc(OCc3c(F)cc(Cl)cc3F)c(C(F)F)cc2CCN1Cc1nc2c(F)cc(C(=O)O)cc2n1C[C@@H]1CCO1 [Compound I-113]", 0.0331],
  ["C[C@H]1c2c(cc(Cl)c3c2OC(C)(c2ccc(Cl)cc2F)O3)CCN1Cc1nc2ccc(C(=O)O)cc2n1C[C@@H]1CCO1 (stereo partly drawn) [Compound I-090]", 2.05],
  ["C[C@H]1c2nc(OCc3ccc(Cl)cc3Cl)c(C(F)F)cc2CCN1Cc1nc2ccc(C(=O)O)cc2n1C[C@@H]1CCO1 [Compound I-057]", 0.315],
  ["C[C@H]1c2nc(OCc3ccccc3Cl)c(C(F)F)cc2CCN1Cc1nc2ccc(C(=O)O)cc2n1C[C@@H]1CCO1 [Compound I-055]", 0.902]
]}

(P) COc1cc(C(=O)O)cc2c1nc(CN1CCc3cc(C(F)F)c(OCc4ccc(Cl)cc4Cl)nc3[C@@H]1C)n2C[C@@H]1CCO1 [Compound I-132]
(Q) C[C@H]1c2nc(OCc3cc(F)c(Cl)cc3F)c(C(F)F)cc2CCN1Cc1nc2ccc(C(=O)O)c(F)c2n1C[C@@H]1CCO1 [Compound I-126]
*Q* Identify the item whose EC50 is the smaller number: P or Q Reply briefly: the label of your chosen item.
*A* P
(P: 0.0162 nM, Q: 0.0635 nM)
